Data credit: the RNAGym collection of RNA variant scans (doi:10.1073/pnas.2313332121)

B1: TPR t1 (parent)
chain: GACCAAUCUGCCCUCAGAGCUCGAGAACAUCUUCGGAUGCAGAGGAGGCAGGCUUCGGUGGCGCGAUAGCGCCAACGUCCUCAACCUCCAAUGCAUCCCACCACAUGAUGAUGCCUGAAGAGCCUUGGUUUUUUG

Variants of: B1
experiment-summary: polymerase ribozyme fitness, log enrichment relative to wild type (log ratio); higher = more active; in vitro selection for triplet polymerase activity
measured-endpoint: polymerase ribozyme fitness (log ratio)
The answer should be written as a number, with no unit following it.

Example results:
1. GACCAAUCUGCCCUCAGAGCUCGAGAACAUCUUCGGAUGCUAAGGAGGCAGACUUCGGUGGCGCGAUAGCGCCAACGUCCUCAACCUCCAAUGCAUCCCACCACAUGAUGAUGCCUGAAGAGCCUUGGUUUUUUG [A41U G42A G52A] : -3.18
2. GACCAAUCUGCCCUCAGAGCUCGAGAACAUCUUCGGAUGCAGAGGAGGCAGGCUUCGGUGGCGCGAUAGCCCCAACGUCCUCAACCUCCAAUGCAUCCCACCACAUGAUGAUGUCUGAAGAGCCUUGGUUUUUUG [G71C C114U] : -3.55
3. GACCAAUCUGCCCUCAGAGCUCGAGAACAUCUUCGGAUGCAGAGGAGGCAGGCUUCGGUGGCGCGAUAGCGCCAACGCCCUCAACCUCCAAUGCAUCCCACCACAUGAUGAUACCUGGAGAGCCUUGGUUUUUGU [U78C G113A A118G U134G G135U] : -1.82
4. GACCAAUCUGCCCUCAGAGCUCGAGAACAUCUUCGGAUGCAGAGGAGGCAGGCUUCGGUGGCGCGUUAGCGCCAACGUCCUCAACCUCCAAUCCAUCCCACCACAUGAUGAUGGCUGAAGAGCCUUGGUUUUUUG [A66U G93C C114G] : -5.41
5. GACCAAUCUGCCCUCAGAGCUCGAGAACAUCUUCGGAUGCAGAGGAGGCAGGCUUCGGUGGCGCGAUAGCGCCAACGUCCUCAACCUCCAAUGGAUCCCACCACAUGAUGAUGCCUGAAGAGUCUUGGUUUUUUG [C94G C123U] : 0.403
6. GACCAAUCUGCCCUCAGAGCUCGAGAACAUCUUCGGAUGCAGGGGAGGCAGGCUUCGGUGGCGCGAUAGCGCCAACGUCUUCAACCUCCAAUGCAUCCCACCACAUGAUGAUGCCUGAAGAGCCUUGGUUUUUUG [A43G C80U] : -2.86
7. GACCAAUCUGCCCUCAGAGUUCGAGAACAUCUUCGGAUGCAGAGGAGGCAGGCUUCGGUGGCGCGAUAGCGCCAACGUCCCCAACCUCCAAUGCAUCCCACCACAUGAUGAUGCCUGAAGAGCCUUGGUUUUUUG [C20U U81C] : -1.54
8. GACCAAUCUGCCCUCAGAGCUCGAGAACAUCUUCGGAUGCAGAGGAGGCAGGGUUCGGUGGCGCGAUAGCGCCAACGUCCUCAACCUCCAAUGCAUCCCACCACAUGAUGAUGUCUGAAGAGCCUUGGUUUUUUG [C53G C114U] : -2.03

Value lookup for polymerase ribozyme fitness (log ratio); key = GUCCAAUUUGCCCUCAGAGCUCGAGAACAUCUUCGGAUGCAGAGGACGCAGGCUUCGGUGGCGCGAUAGCGCCAACGUCCUCAACCUCCAAUUCAUCCCACCACAUGAUGAUGCCUGAAGAGCCUUGGUUUUUUG [A2U C8U G47C G93U] -4.25

Same question, GAUCAAUCUGCCCUCAGAGCUAGAGAACAUCUUCGGAUGCAGAGGAGGCAGGCCUCGGUGGCGCGAUAGCGUCAACGUUCUUAACCUCCAAUGCAUCCCUCCACAUGAUGAUGCCUGAAGAGCCUUGGUUUUUUG [C3U C22A U54C C72U C79U C82U A100U] this time -6.11

Same question, GACCAAUCUGCCCUCAGAGUUCGAGAACAUCUUCGGAUGCAGAGGAGGCAGGCUUCGGUGGCGCGAUAGCGCCAACGUCCUCAACCUCCAAUGCAUCCCACCACAUGAUUAUGCCUGAAGAGCCUUGGUUUUUUG [C20U G110U] this time -3.13

Same question, GACCAAUCUGCGUUCAGAGCUCGAGAACAUCUUCGGAUGCAGAGGAGGCAGUCUUCGGUGUCGCGAUAGCGCCAACGUCCUCAACCUCCAAUGCAUCCCACUACAUGAUGAUGCCUGAAGUCCCUUGGUUUUUUG [C12G C13U G52U G61U C102U A121U G122C] this time -1.95

Same question, GACCAAUCUGCCCUCAGAGCUCGAGAACAUCUUCGGAUGCAGAAGAGGCAGGCUUCGGUGGCGCGAUAGCGCCAACGUCCUCAACCUCCAAUGCAUCCCACCACAUGAUUAUGCCUGAAGAGCCUUGGUUUUUUG [G44A G110U] this time -2.5

Same question, GACCAAUCUUCCCUCAGAGCUCGAGAACAUCUUCGGAUGCAGAGGAGGCAGGCUUCGGUGGCGCGAUAGCCCCAACGUCCUCAACCUCCAAUGCAUCCCACCACAUGAUGAUGCCUGAAGAGCCUUGGUUUUUUG [G10U G71C] this time -1.29

Same question, GACCAAUCUGCGCUCAGCGCUCGAGAACAUCUUCGGAUGCAGAGGAGGCAGGCUUCGGUGGCGCGAUAGCGCCAACGUCUUCAACCUCCAAUGCAUCCCACCACAUGAUGAGGCCUGAAGAGCCUUGGUUUUUUG [C12G A18C C80U U112G] this time -3.95

Same question, GACCAAUCUGCCCUCAGAGCUCGAGAACAUCUUCGGAUGCAGCGGAGGCAGGCUUCGGUGGCGCGAUAGCGCCAAUGUCCUCAACCUCCAAUGCAUCUCACCACAUGAUGAUGCCUUAAGAGCCUUGGUUUUUUG [A43C C76U C98U G117U] this time -7.18

Same question, GACCAAUCUGUCCUCAGAGCUCGAGAACAUCUUCGGAUGCAGAGGAGGCAGGCUUCGGUGGCGUGAUAGCGCCAACGCCCUCAACCUCCAAUGCAUCCCACCACAUGAUGAUGCCUGAAGAGCCUUGGUUUUUUG [C11U C64U U78C] this time -0.654

Same question, GACCAAUUUGGCCUCAGAGCUCGAGAACAUCUUCGGAUGCAGAGGAGCCAGGCUUUGGUGGCGCGAUAGCGCCAACGUCCUCAACCUCUAAUGCAUCCCACCACAUGAUGAUGCCUUAAGAGCCUUGGUUUUUUG [C8U C11G G48C C56U C89U G117U] this time -1.01

Same question, GACCAAUCUGCCCUCAGAGCUCGAGAACAUCUUCGGAUGCAGAGGACGCAGGCUUCGGUGGCGCGAUAGUGCCAACGUCCUCAACCUCCAAUACAUCCCACCACAUGAUGAUGCCUGAAGAGCAUUUGUUUUUUU [G47C C70U G93A C124A G127U G135U] this time -3.66

Same question, GACCAAUCUGCCCUCAGAGCUCGCGAACAUCUUCGGAUGCAGAGGAGGCCGUCUUCGGUGGCGCGAUAGCGCCAACGUCCUCAACCUCCAAUGCAUCCCACCACAUGAUGCUGCCUGAAGAGCCUUGGUUUUUUG [A24C A50C G52U A111C] this time -6.93

Same question, GACCAAUCUGCCCUCAGAGCUCGAGAACAUCUUCGGAUGCAGAGGAGGCAGGCUUCGGUGGCGCGAUAGCGCCAACGUCCUCAACCUCCAAUGCAUCCCAUCACAUGUGGAUGCCUGAAGAGCCUUGGUUUUUUG [C101U A108U U109G] this time -6.14

Same question, GACCAAUCUGCCCUCAGAGCUCGAGAACAUCUUCGGAUGCAGACGAGGCAGGCUUCGGUGGCGCGAUAGCGCCAACGUCCUCAACCUCCAAUGCAUCUCACCACAUGAUGAUGCCUGAAGAGCCUUGGUUUUUUG [G44C C98U] this time -2.37

Same question, GACCAAUCCGCCCUCAGAGCUCGAGAACAUCUUCGGAUGCAGAGGAGCCAGGCUUCGGUGGCGCGAUAGCGCCAACGUCCUCAACCUCCAAUGCAUCCCAACACAUGAUGAUGCCUAAAGAGCCUUGGUUUUUUG [U9C G48C C101A G117A] this time -1.58
